These data points were gathered from paper PMC12063173.

- procedureSummary: Plasma pharmacokinetics of phenolic metabolites after oral capsule of (poly)phenol-rich Mediterranean extract mixture
- conditionsUsed: male, Sprague-Dawley, rat, po, 22 mg extract blend per capsule, one capsule per animal
quantityName: Cmax (µM)

O=C(O)CCCCc1cccc(O)c1 [5-(3-hydroxyphenyl)-valeric acid] : 0.0048
O=C(O)c1ccc(O)cc1O [2,4-dihydroxybenzoic acid] : 0.534
O=C(O)CCc1ccccc1O [3-(2-hydroxyphenyl) propionic acid] : 0.02
O=C(O)CCc1ccc(O)c(O)c1 [dihydrocaffeic acid] : 0.016
O=c1oc2c(O)c(O)cc3c(=O)oc4c(O)c(O)cc1c4c23 : 0.0011

1 = O=S(=O)(O)Oc1cc(O)cc(C=Cc2ccc(O)cc2)c1 [resveratrol 3-O-sulfate]
2 = O=C(O)CCc1cccc(O)c1 [3-(3-hydroxyphenyl) propionic acid]
Exercise: Smaller Cmax value? Options are 1 and 2 Reply with the label of the item you choose.
Solution: 1
(1: 0.0022 µM, 2: 0.039 µM)
